system: LoVo-Dox; experiment: SRB colorimetric cell growth inhibition assay, LoVo-Dox (MDR); type: cell-based; conditions: LOVO-DOX; cell killing (cytotoxic effect); read-out: LC50 LOVO-DOX
# CC50 listing for each entry below
The response must be a number in µM with no trailing unit.

Some compounds with known CC50 results, for comparison:
* COc1cc2c(cc1O)oc(=O)c1c2c(-c2ccc(OC(=O)[C@H](C)N)c(OC)c2)c2c3cc(OC)c(O)cc3ccn21.Cl | 16.5
* COc1cc(-c2c3n(c4c(=O)oc5cc(OS(C)(=O)=O)c(OC)cc5c24)CCc2cc(OS(C)(=O)=O)c(OC)cc2-3)ccc1OS(C)(=O)=O | 13.6
* COc1cc(-c2c3c4cc(OC)c(OC(=O)[C@H](C)N)cc4oc(=O)c3n3ccc4c(OC(=O)[C@H](C)N)c(OC)c(OC)cc4c23)ccc1OC(=O)[C@H](C)N [Compound 191] | 11.7
* COc1cc(-c2c3n(c4c(=O)oc5cc(OC(C)=O)c(OC)cc5c24)CCc2cc(OC)c(OC(C)=O)cc2-3)ccc1OC(C)=O | 15.9

Request: Notebook entry, LoVo-Dox assay: CC50 of COc1cc(-c2c3c4cc(OC)c(OC(=O)[C@H](C)N)cc4oc(=O)c3n3ccc4c(OC(=O)[C@H](C)N)c(OC)c(OC)cc4c23)ccc1OC(=O)[C@H](C)N [Compound 16] = ?
Response: 4.42

Request: Notebook entry, LoVo-Dox assay: CC50 of COc1cc2ccn3c(c(-c4ccc(OC(=O)[C@@H](N)Cc5ccccc5)c(OC)c4)c4c5cc(OC)c(OC(=O)[C@@H](N)Cc6ccccc6)cc5oc(=O)c43)c2cc1OC = ?
Response: 12.4

Request: Notebook entry, LoVo-Dox assay: CC50 of COc1cc(-c2c3c4cc(OC)c(OC(=O)[C@H](C)N)cc4oc(=O)c3n3ccc4cc(O)c(OC)cc4c23)ccc1O.Cl = ?
Response: 16.5

###

test system: PANC-1; experiment: SRB colorimetric cell growth inhibition assay, PANC-1; assay type: cell-based; settings: Homo sapiens, PANC-1, PANC-1; GI=growth inhibition; read-out: GI50 PANC-1
I'd appreciate it if you marked entries 1 (yes) when GI50 is lower than 1000 nM and 0 (no) when it is not.

• COc1cc(-c2c3n(c4c(=O)oc5cc(OC(=O)CCc6ccccc6)c(OC)cc5c24)CCc2cc(OC(=O)CCc4ccccc4)c(OC)cc2-3)ccc1OC(=O)CCc1ccccc1 [Compound 11] = 1 (yes)

Request: Take the compound COc1cc2c(cc1OC)-c1c(-c3ccc(OC(=O)[C@H](C)N)c(OC)c3)c3c4cc(OC)c(OC(=O)[C@H](C)N)cc4oc(=O)c3n1CC2 [Compound 63] and say whether its GI50 is less than 1000 nM.
Response: 0 (no)

Request: Take the compound COc1cc2c(cc1OC)-c1c(-c3ccc(OS(C)(=O)=O)c(OC)c3)c3c4cc(OC)c(OS(C)(=O)=O)cc4oc(=O)c3n1CC2 [Compound 92] and say whether its GI50 is less than 1000 nM.
Response: 0 (no)

Request: Take the compound COc1cc(-c2c3n(c4c(=O)oc5cc(OC(=O)[C@H](C)N)c(OC)cc5c24)CCc2c-3cc(OC)c(OC)c2OC(=O)[C@H](C)N)ccc1OC(=O)[C@H](C)N [Compound 96] and say whether its GI50 is less than 1000 nM.
Response: 0 (no)

Request: Take the compound COc1cc2ccn3c(c(-c4ccc(OS(=O)(=O)C(F)(F)F)c(OC)c4)c4c5cc(OC)c(OS(=O)(=O)C(F)(F)F)cc5oc(=O)c43)c2cc1OC [Compound 126] and say whether its GI50 is less than 1000 nM.
Response: 0 (no)
